- particulars: buffer; pH 7.4; 200.0 µM

>  <compound>
C1=NCCc2c1[nH]c1ccccc21.[O-][Cl+3]([O-])([O-])O

>  <solubility kinetic>
> 40.6 µg/mL

$$$$
>  <compound>
CC(=O)N1CC(=O)Nc2ccc(F)cc2C1c1ccccc1 (configuration not stated)

>  <solubility kinetic>
> 44.7 µg/mL

$$$$
>  <compound>
CCN1CCN(C(=O)Cc2ccc(C)cc2)CC1

>  <solubility kinetic>
> 37 µg/mL

$$$$
>  <compound>
O=S(=O)(c1ccc(-c2ccon2)s1)N1CCOCC1

>  <solubility kinetic>
> 45.1 µg/mL

$$$$
>  <compound>
O=C(Cn1ncc2c([nH]c3ccccc32)c1=O)N1CCOCC1

>  <solubility kinetic>
> 46.8 µg/mL

$$$$
>  <compound>
O=C(CN1CCN(c2ccccn2)CC1)Nc1ccc(F)c(F)c1

>  <solubility kinetic>
> 49.9 µg/mL

$$$$
>  <compound>
O=C(NCCCN1CCCC1)Nc1ccccc1[N+](=O)[O-]

>  <solubility kinetic>
> 43.9 µg/mL

$$$$

----------
Parameter: solubility kinetic. Scope: all listed entries.
- particulars: buffer; pH 7.4; 200.0 µM

>  <molecule>
Cc1ccc(-c2nc3ccccc3[nH]c2=O)cc1

>  <relationOperator>
=

>  <solubility kinetic (µg/mL)>
1

$$$$
>  <molecule>
Cc1cc(F)ccc1S(=O)(=O)NCC1CC2CCC1C2 (stereo unspecified)

>  <relationOperator>
=

>  <solubility kinetic (µg/mL)>
4.2

$$$$
>  <molecule>
COc1ccc(CCN=C(N)Nc2nc(C)cc(C)n2)cc1

>  <relationOperator>
=

>  <solubility kinetic (µg/mL)>
36.5

$$$$
>  <molecule>
COc1ccc2c(CC(=O)OCc3nc4ccsc4c(=O)[nH]3)coc2c1

>  <relationOperator>
=

>  <solubility kinetic (µg/mL)>
32.2

$$$$
>  <molecule>
OC1CCN(Cc2ccc3ccccc3c2)CC1

>  <relationOperator>
=

>  <solubility kinetic (µg/mL)>
26.6

$$$$
>  <molecule>
Cc1nc(N2CCOCC2)[nH]c(=O)c1C(O)C(Cl)(Cl)Cl (stereo unspecified)

>  <relationOperator>
=

>  <solubility kinetic (µg/mL)>
47.1

$$$$
>  <molecule>
O=C(O)CCN1C(=O)S/C(=C\c2cccnc2)C1=O

>  <relationOperator>
>

>  <solubility kinetic (µg/mL)>
41.7

$$$$
>  <molecule>
NC(=O)C1(c2ccccc2)CCC(=O)N1c1ccccc1 (stereo unspecified)

>  <relationOperator>
>

>  <solubility kinetic (µg/mL)>
42

$$$$
>  <molecule>
Cc1ccc(Oc2ncccc2C(=O)NCC(=O)O)cc1

>  <relationOperator>
=

>  <solubility kinetic (µg/mL)>
42.7

$$$$
>  <molecule>
O=C1CN(C(=O)CNC(=O)c2ccc(Cl)cc2Cl)CCN1

>  <relationOperator>
=

>  <solubility kinetic (µg/mL)>
47.4

$$$$
>  <molecule>
Cc1ccc(N2CC(C)Cn3c2nc2c3c(=O)[nH]c(=O)n2C)cc1 (stereo unspecified)

>  <relationOperator>
=

>  <solubility kinetic (µg/mL)>
8.8

$$$$
>  <molecule>
CCCCOc1ccc(C(=O)Nc2ccc(CN3CCOCC3)cc2)cc1

>  <relationOperator>
=

>  <solubility kinetic (µg/mL)>
1.1

$$$$
>  <molecule>
O=C(CSc1ccccc1C(=O)N1CCN(c2ccc([N+](=O)[O-])cc2)CC1)N1CCCC1

>  <relationOperator>
>

>  <solubility kinetic (µg/mL)>
68.2

$$$$
>  <molecule>
CC1CCN(C(=O)c2cc3c(ccc4ccccc43)o2)CC1

>  <relationOperator>
<

>  <solubility kinetic (µg/mL)>
0.6

$$$$
>  <molecule>
Cc1ccc(NC(=O)c2ccc(S(=O)(=O)N3CCOCC3)cc2)cc1

>  <relationOperator>
=

>  <solubility kinetic (µg/mL)>
3.6

$$$$
>  <molecule>
Cc1ccc(NC(=O)N2C3CCCC2CC(NC(=O)C2CC2)C3)cc1 (stereo unspecified)

>  <relationOperator>
=

>  <solubility kinetic (µg/mL)>
9.4

$$$$
